These data points were gathered from patent US20220363770A1.

- TEST_SYSTEM: T1, human PAC1 receptor extracellular domain (ECD) (human, UniProt P41586 24-153)
- T1 construct: also called PAC1 receptor ECD; PAC1 ECD
- T1 sequence: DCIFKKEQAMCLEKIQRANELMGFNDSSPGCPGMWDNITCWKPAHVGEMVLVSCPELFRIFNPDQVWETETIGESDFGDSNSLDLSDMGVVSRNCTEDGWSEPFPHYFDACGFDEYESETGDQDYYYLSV
- METHOD_SUMMARY: yeast-displayed Fab, FACS, 10 nM PAC1 receptor ECD
QUANTITY: Normalized Binding Signal/Display Signal (B/D) (ratio)
Provide the reading as a plain figure in ratio.

BINDER	ENDPOINT_RESULT
anti-CGRP receptor variant 07, yeast-displayed Fab (Fab, V domains shown, also called Variant Ab ID 07) VH: QVQLVESGGGVVQPGRSLRLSCAASGFYFMTYGMHWVRQAPGKGLEWVAVISFDGSIKYSVDSVKGRFTISRDNSKNTLFLQMNSLRAEDTAVYYCARDRLNYYESSGYYHYKYYGMAVWGQGTTVTVSS VL: QSVLTQPPSVSAAPGQKVTISCSGSSSNIGNNYVSWYQQLPGTAPKLLIYDNNKRPSGIPDRFSGSKSGTSATLGITGLQTGDEADYYCGTWDSRLSAVVFGGGTKLTVLG	0.13
anti-CGRP receptor variant 10, yeast-displayed Fab (Fab, V domains shown, also called Variant Ab ID 10) VH: QVQLVESGGGVVQPGRSLRLSCAASGFFFGSYGMHWVRQAPGKGLEWVAVISFAGEIEHYVDSVKGRFTISRDNSKNTLFLQMNSLRAEDTAVYYCARDRLNYYESSGYYHYKYYGMAVWGQGTTVTVSS VL: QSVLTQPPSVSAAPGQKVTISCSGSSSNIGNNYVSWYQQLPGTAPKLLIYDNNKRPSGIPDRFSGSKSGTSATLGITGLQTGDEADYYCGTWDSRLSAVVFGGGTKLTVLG	0.1

Problem: Please indicate Normalized Binding Signal/Display Signal (B/D) recorded for anti-CGRP receptor variant 08, yeast-displayed Fab (Fab, V domains shown, also called Variant Ab ID 08) VH: QVQLVESGGGVVQPGRSLRLSCAASGFTFSSFGMHWVRQAPGKGLEWVAVISFDGSIKYSVDSVKGRFTISRDNSKNTLFLQMNSLRAEDTAVYYCARDRLNYYESSGYYHYKYYGMAVWGQGTTVTVSS VL: QSVLTQPPSVSAAPGQKVTISCSGSYSNIGWWPVSWYQQLPGTAPKLLIYDNNKRPSGIPDRFSGSKSGTSATLGITGLQTGDEADYYCGTWDSRLSAVVFGGGTKLTVLG
Solution: 0.1
